tested on: S. aureus LSLT1111; assay: Antibiogram of S. aureus LSLT1111
QUANTITY: Sensitivity to antibiotic

>>> result("CC[C@H]1OC(=O)[C@H](C)[C@@H](O[C@H]2C[C@@](C)(OC)[C@@H](O)[C@H](C)O2)[C@H](C)[C@@H](O[C@@H]2O[C@H](C)C[C@H](N(C)C)[C@H]2O)[C@](C)(O)C[C@@H](C)C(=O)[C@H](C)[C@@H](O)[C@]1(C)O")
"Resistant/Sensitive"
>>> result("CN(C)[C@@H]1C(=O)C(C(N)=O)=C(O)[C@@]2(O)C(=O)C3=C(O)c4c(O)cccc4[C@@](C)(O)[C@H]3C[C@@H]12")
"Sensitive"
>>> result("COc1cccc(OC)c1C(=O)N[C@@H]1C(=O)N2[C@@H]1SC(C)(C)[C@@H]2C(=O)O")
"Sensitive"
>>> result("O=C(N[C@H](CO)[C@H](O)c1ccc([N+](=O)[O-])cc1)C(Cl)Cl")
"Sensitive"
>>> result("CC(=O)OCC1=C(C(=O)O)N2C(=O)[C@@H](NC(=O)Cc3cccs3)[C@H]2SC1")
"Sensitive"
>>> result("CN[C@H](CC(C)C)C(=O)N[C@H]1C(=O)N[C@@H](CC(N)=O)C(=O)N[C@H]2C(=O)N[C@H]3C(=O)N[C@H](C(=O)N[C@H](C(=O)O)c4cc(O)cc(O)c4-c4cc3ccc4O)[C@H](O)c3ccc(c(Cl)c3)Oc3cc2cc(c3O[C@@H]2O[C@H](CO)[C@@H](O)[C@H](O)[C@H]2O[C@H]2C[C@](C)(N)[C@H](O)[C@H](C)O2)Oc2ccc(cc2Cl)[C@H]1O")
"Sensitive"
>>> result("CCC[C@@H]1C[C@@H](C(=O)N[C@@H]([C@H]2O[C@H](SC)[C@H](O)[C@@H](O)[C@H]2O)[C@@H](C)O)N(C)C1")
"Resistant/Sensitive"

These measurements were taken from patent US20090186111A1.
